- System: NS5A chimeric genotype 1b Con1 replicon with genotype 3a S52 strain NS5A gene
- assay.procedure: Replicon assay, genotype 3a NS5A chimera
- Assay type: cell-based, HCV
- experimental.conditions: Hepatitis C virus, read-out: 3a (t), transiently transfected (t) into Huh-Lunet cells; activity range
assay.endpoint: EC50

// worked examples, EC50 included
COC[C@H]1C[C@@H](c2ncc(-c3ccc4c(c3)COc3cc5c(ccc6nc([C@@H]7C[C@H](COC)CN7C(=O)[C@H](NC(=O)OC)c7ccccc7)[nH]c65)cc3-4)[nH]2)N(C(=O)[C@H](NC(=O)OC)c2ccccc2)C1; 0.1 to 0.999 nM
CC[C@H]1CC[C@@H](c2ncc(-c3ccc4c(c3)COc3cc5c(ccc6nc([C@@H]7CC[C@H](C)N7C(=O)[C@@H](NC(=O)OC)[C@@H](C)OC)[nH]c65)cc3-4)[nH]2)N1C(=O)[C@@H](NC(=O)OC)C1CCOCC1; < 0.1 nM

We now examine a further molecule.
Give a short answer stating reported EC50 for COC(=O)NC(C(=O)N1[C@@H](C)CC[C@H]1c1nc2ccc3cc4c(cc3c2[nH]1)OCc1cc(-c2cnc([C@@H]3CC[C@H](C)N3C(=O)[C@@H](NC(=O)OC)[C@@H](C)OC)[nH]2)ccc1-4)C1CCOCC1 (stereo partly drawn) .
0.1 to 0.999 nM

---

- Tested on: NS5A chimeric genotype 1b Con1 replicon with genotype 3a S52 strain NS5A gene
- assay.procedure: Replicon assay, genotype 3a NS5A chimera
- Format: cell-based, HCV
- experimental.conditions: Hepatitis C virus, read-out: 3a (s), (s); activity range
pEC50: −log10 of the molar value.
assay.endpoint: pEC50

CC[C@H]1CC[C@@H](c2ncc(-c3ccc4c(c3)COc3cc5c(ccc6nc([C@@H]7CC[C@H](C)N7C(=O)[C@@H](NC(=O)OC)[C@@H](C)OC)[nH]c65)cc3-4)[nH]2)N1C(=O)[C@@H](NC(=O)OC)C(C)C [EQ]; 9.00 to 10.00
CC[C@H]1CC[C@@H](c2nc3ccc4cc5c(cc4c3[nH]2)OCc2cc(-c3cnc([C@@H]4CC[C@H](C)N4C(=O)[C@@H](NC(=O)OC)C(C)C)[nH]3)ccc2-5)N1C(=O)[C@@H](NC(=O)OC)C1CCOCC1 [EO]; > 10.00
COC(=O)N[C@H](C(=O)N1[C@@H](C)CC[C@H]1c1ncc(-c2ccc3c(c2)COc2cc4c(ccc5nc([C@@H]6CC[C@H](C)N6C(=O)[C@H](NC(=O)OC)c6ccccc6)[nH]c54)cc2-3)[nH]1)C(C)C [FB]; > 10.00

We now examine a further compound.
Give a short answer stating reported pEC50 for CC[C@H]1CC[C@@H](c2nc3ccc4cc5c(cc4c3[nH]2)OCc2cc(-c3cnc([C@@H]4CC[C@H](C)N4C(=O)[C@@H](NC(=O)OC)C4CCOCC4)[nH]3)ccc2-5)N1C(=O)[C@@H](NC(=O)OC)C(C)C [IR] .
> 10.00

---

- Test system: NS5A chimeric genotype 2a JFH-1 replicon with genotype 2b MD2b-1 strain NS5A gene (M31 present)
- assay.procedure: Replicon assay, genotype 2b NS5A chimera
- Format: cell-based, HCV
- experimental.conditions: Hepatitis C virus, read-out: 2b (s) (nM), genotype 2b MD2b-1 NS5A chimeric replicon (M31), stably replicating replicon cells (s)
Below: a set of entries, each annotated with reported EC50.
# include the unit after the value

// worked examples, EC50 included
CC[C@H](C)[C@H](NC(=O)OC)C(=O)N1[C@@H](C)CC[C@H]1c1ncc(-c2ccc3c(c2)COc2cc4c(ccc5nc([C@@H]6CC[C@H](C)N6C(=O)[C@@H](NC(=O)OC)[C@@H](C)CC)[nH]c54)cc2-3)[nH]1; 0.4 nM
CC[C@H]1CC[C@@H](c2nc3ccc4cc5c(cc4c3[nH]2)OCc2cc(-c3cnc([C@@H]4CC[C@H](C)N4C(=O)[C@@H](NC(=O)OC)[C@@H](C)OC)[nH]3)ccc2-5)N1C(=O)[C@@H](NC(=O)OC)[C@@H](C)OC; 0.238 nM
COC[C@H]1C[C@@H](c2nc(Cl)c(-c3ccc4c(c3)COc3cc5c(ccc6nc([C@@H]7CC[C@H](C)N7C(=O)[C@@H](NC(=O)OC)C(C)C)[nH]c65)cc3-4)[nH]2)N(C(=O)[C@H](NC(=O)OC)c2ccccc2)C1; 0.034 nM

Give a short answer stating reported EC50 for COC(=O)N[C@H](C(=O)N1C[C@@H](C)C[C@H]1c1ncc(-c2ccc3c(c2)COc2cc4c(ccc5nc([C@@H]6CC[C@H](C)N6C(=O)[C@@H](NC(=O)OC)[C@@H](C)OC)[nH]c54)cc2-3)[nH]1)C(C)C .
0.247 nM

Give a short answer stating reported EC50 for CC[C@H]1CC[C@@H](c2ncc(-c3ccc4c(c3)COc3cc5c(ccc6nc([C@@H]7CC[C@H](C)N7C(=O)[C@@H](NC(=O)OC)[C@@H](C)CC)[nH]c65)cc3-4)[nH]2)N1C(=O)C(NC(=O)OC)C1CCOCC1 (stereo partly drawn) .
0.212 nM

Give a short answer stating reported EC50 for CC[C@H]1CC[C@@H](c2ncc(-c3ccc4c(c3)COc3cc5c(ccc6nc([C@@H]7C[C@@H]8CCC[C@@H]8N7C(=O)[C@@H](NC(=O)OC)C(C)C)[nH]c65)cc3-4)[nH]2)N1C(=O)[C@@H](NC(=O)OC)C1CCOCC1 .
0.109 nM

---

Below: a set of entries, each annotated with reported EC50.
- System: NS5A chimeric genotype 1b Con1 replicon with genotype 3a S52 strain NS5A gene
- assay.procedure: Replicon assay, genotype 3a NS5A chimera
- Type: cell-based, HCV
- experimental.conditions: Hepatitis C virus, read-out: 3a (s) (nM), genotype 3a NS5A chimeric replicon, stable replicon cells (s)
Please respond with the number in nM and leave the unit unwritten.

// worked examples, EC50 included
COC(=O)N[C@H](C(=O)N1C[C@@H](F)C[C@H]1c1ncc(-c2ccc3c(c2)COc2cc4c(ccc5nc([C@@H]6CC[C@H](C)N6C(=O)[C@@H](NC(=O)OC)C(C)C)[nH]c54)cc2-3)[nH]1)C(C)C [HS]; 0.082
CC[C@H]1CC[C@@H](c2nc3ccc4cc5c(cc4c3[nH]2)OCc2cc(-c3cnc([C@@H]4CC[C@H](C)N4C(=O)[C@@H](NC(=O)OC)C(C)C)[nH]3)ccc2-5)N1C(=O)[C@@H](NC(=O)OC)C1CCOCC1 [EO]; 0.054
COC(=O)N[C@@H](C)C(=O)N1[C@@H](C)CC[C@H]1c1ncc(-c2ccc3c(c2)COc2cc4c(ccc5nc([C@@H]6CC[C@H](C)N6C(=O)[C@@H](NC(=O)OC)C(C)C)[nH]c54)cc2-3)[nH]1 [HL]; 0.127

# return EC50 for CC[C@H](C)[C@H](NC(=O)OC)C(=O)N1[C@@H](C)CC[C@H]1c1ncc(-c2ccc3c(c2)COc2cc4c(ccc5nc([C@@H]6CC[C@H](C)N6C(=O)[C@@H](NC(=O)OC)[C@@H](C)CC)[nH]c54)cc2-3)[nH]1 [EC] , test system: NS5A chimeric genotype 1b Con1 replicon with genotype 3a S52 strain NS5A gene
0.029

# return EC50 for COC(=O)N[C@H](C(=O)N1C[C@@H](C)C[C@H]1c1ncc(-c2ccc3c(c2)COc2cc4c(ccc5nc([C@@H]6CC[C@H](C)N6C(=O)[C@@H](NC(=O)OC)[C@@H](C)OC)[nH]c54)cc2-3)[nH]1)C(C)C [GH] , test system: NS5A chimeric genotype 1b Con1 replicon with genotype 3a S52 strain NS5A gene
0.07

# return EC50 for CC[C@H]1CC[C@@H](c2ncc(-c3ccc4c(c3)COc3cc5c(ccc6nc([C@@H]7CC[C@H](C)N7C(=O)[C@@H](NC(=O)OC)[C@@H](C)CC)[nH]c65)cc3-4)[nH]2)N1C(=O)C(NC(=O)OC)C1CCOCC1 (stereo partly shown) [IJ] , test system: NS5A chimeric genotype 1b Con1 replicon with genotype 3a S52 strain NS5A gene
0.127

# return EC50 for CC[C@H]1CC[C@@H](c2ncc(-c3ccc4c(c3)COc3cc5c(ccc6nc([C@@H]7C[C@H](COC)CN7C(=O)[C@@H](NC(=O)OC)C(C)C)[nH]c65)cc3-4)[nH]2)N1C(=O)[C@@H](NC(=O)OC)C(C)C [ER] , test system: NS5A chimeric genotype 1b Con1 replicon with genotype 3a S52 strain NS5A gene
2.8

# return EC50 for CC[C@H](C)[C@H](NC(=O)OC)C(=O)N1C[C@@H](COC)C[C@H]1c1nc2ccc3cc4c(cc3c2[nH]1)OCc1cc(-c2cnc([C@@H]3CC[C@H](C)N3C(=O)[C@@H](NC(=O)OC)[C@@H](C)OC)[nH]2)ccc1-4 [ED] , test system: NS5A chimeric genotype 1b Con1 replicon with genotype 3a S52 strain NS5A gene
0.099

# return EC50 for COC(=O)N[C@H](C(=O)N1[C@@H](C)CC[C@H]1c1ncc(-c2ccc3c(c2)COc2cc4c(ccc5nc([C@@H]6CC[C@H](C)N6C(=O)[C@@H](NC(=O)OC)[C@@H](C)OC)[nH]c54)cc2-3)[nH]1)C1CCOCC1 [FR] , test system: NS5A chimeric genotype 1b Con1 replicon with genotype 3a S52 strain NS5A gene
0.031

# return EC50 for COC[C@H]1C[C@@H](c2ncc(-c3ccc4c(c3)COc3cc5c(ccc6nc([C@@H]7C[C@H](C)CN7C(=O)[C@@H](NC(=O)OC)[C@@H](C)OC)[nH]c65)cc3-4)[nH]2)N(C(=O)[C@@H](NC(=O)OC)[C@@H](C)OC)C1 [FW] , test system: NS5A chimeric genotype 1b Con1 replicon with genotype 3a S52 strain NS5A gene
1.17
